System: SK-MEL-5 melanoma
assay.comment: NCI tumour cell line growth inhibition, 48 h
Provide the recorded TGI for the entries that follow.

compound: CC1CC(OP(=O)(OCc2ccccc2)OCc2ccccc2)[C@@H](OCc2ccccc2)C(OCc2ccccc2)C1OCc1ccccc1 (stereo not given in full)
TGI: > 100 µM

Record TGI per entry; entries follow.
1. O=[N+]([O-])c1cccc(C2=NN(c3ccccc3)C[N+](c3ccc(Br)cc3)=N2)c1
2. O=C1/C(=C/c2ccc(Br)s2)NC(=S)N1c1ccccc1
3. CCCCC#CC1=C(Br)C(=O)OC1
4. COc1cc2c(cc1OC)C(CC1=C(c3ccccc3)CN3CCc4cc(OC)c(OC)cc4C3C1)NCC2 (stereo not given)
5. Fc1ccc2c(c1)nc1n2C(c2c(Cl)cccc2Cl)SC1 (stereo not given)
6. O=C1CCC2(c3ccc(Cl)cc3)Nc3ncccc3N12 (stereo not given)
7. CC(=O)OC1/C=C(\C)C(OC(C)=O)C/C=C(/C)CCC2C(/C=C/C1=O)C2(C)C (stereo not given)

Result:
> 100 µM
> 100 µM
0.366 µM
31.3 µM
21.1 µM
> 100 µM
> 100 µM

Record TGI per entry; entries follow.
1. CC1=C(C)CC2C(=O)N(c3cc(C(C)(C)C)ccc3C(C)(C)C)C(=O)C2C1 (stereo not given)
2. Cc1c(O)ccc2c(O)c(NC(=O)c3ccc4c(c3)CCC(C)(C)O4)c(=O)oc12

Result:
["> 100 µM", "> 100 µM"]

====

Provide the recorded TGI for the entries that follow.
System: OVCAR-5 ovarian
assay.comment: NCI tumour cell line growth inhibition, 48 h

Some solved cases for reference:
compound: O=c1sc2ccccc2n1CC1CS1 (stereo unspecified)
system.tested: OVCAR-5 ovarian
result: > 100 µM
//
compound: CO/N=C(/C)c1cccc(Nc2cc(-n3nnc4ccccc43)nc3ccccc23)c1
system.tested: OVCAR-5 ovarian
result: > 100 µM
//
compound: O=[N+]([O-])c1ccc(CN(CCCl)OCCCl)cc1
system.tested: OVCAR-5 ovarian
result: > 100 µM
//
compound: CCCCCCNc1n[nH]c(=O)c2c1nnn2Cc1ccccc1
system.tested: OVCAR-5 ovarian
result: > 100 µM
//
compound: Cc1cc(Nc2ccc(NC(=O)c3ccc(Nc4ccnc5ccccc45)cc3)cc2)nc(N)n1
system.tested: OVCAR-5 ovarian
result: 37.5 µM

Record TGI per entry; entries follow.
1. CCN(CC)CCNc1ccc2nnn3c4ccc(OCCN(CC)CC)cc4c(=O)c1c23
2. Cc1cc(Cl)cc(OCCn2cc(F)cn2)c1-c1nc(N)nc2c1CN(C(=O)NCC(C)(F)F)C2

Result:
1. > 100 µM
2. > 100 µM

Record TGI per entry; entries follow.
1. c1ccc(-c2nnc(-c3ccccn3)s2)nc1
2. CCCC(=O)OCC1OC(n2ccc(N)nc2=O)C(OC(=O)CCC)C1OC(=O)CCC (stereo unspecified)
3. CC(=O)N(C(C)=O)c1ncc(-n2nc(-c3ccccc3)cc2-c2ccccc2)c(-c2ccccc2)n1
4. CC(=O)c1ccccc1NP(=O)(c1ccccc1)c1ccccc1
5. Cc1ccc(S(=O)(=O)Nc2ccccc2C=O)cc1
6. O=C(Nc1ccc(Nc2ccncc2)cc1)c1ccc([N+](=O)[O-])cc1
7. CC(C)(C)OC(=O)NC1CCCCC1NC(=O)C(=O)NC1CCCCC1NC(=O)OC(C)(C)C (stereo unspecified)
8. O=C(O)c1nnsc1-c1ccc(-c2snnc2C(=O)O)cc1

Result:
> 100 µM
> 100 µM
> 10 µM
> 100 µM
67 µM
> 44.7 µM
> 100 µM
> 100 µM

Reference source for all entries: PubChem BioAssay (NCI)
